- Test system: E. coli
- PROCEDURE TEXT: Gram negative MIC protocol (OD600, LB, 24 h)
- CONDITIONS: Escherichia coli, read-out: MIC E. coli delta-TolC LB Media, E. coli delta-TolC, LB media, OD600
REPORTED PROPERTY: MIC

Sample answers from the record:
COMPOUND | MIC
c1ccc(CNCC2CCCc3ccccc32)cc1 (stereo not drawn) | > 150 µM
CC(CC1CCCCC1)NCc1ccccc1OCc1ccccc1C1CC1 (stereo not drawn) | 4 µM
COc1cccc(CNCCC2=CCCCC2)c1 | > 150 µM

# batch: return MIC for each of the 8 compounds below
1. CC(C)(CN1CCCOCC1)NCc1ccccc1
2. CC(CC1CCCCC1)NCc1ccccc1CS(C)(=O)=O (stereo not drawn)
3. c1ccc(CNCCN2CCCC3CCCC32)cc1 (stereo not drawn)
4. COC(=O)C1CCCCC1CCNCc1ccccc1 (stereo not drawn)
5. C[C@H](NCc1ccccc1)[C@@H]1C[C@H]1c1ccccc1
6. CC(CC1CCCCC1)NCc1ccccc1OCc1ccccc1C(C)C (stereo not drawn)
7. CC(CC1CCOC1)NCc1ccccc1 (stereo not drawn)
8. CC(CC1CCCCC1)NCc1ccccc1OCc1ccc(F)cc1 (stereo not drawn)

> 150 µM
3 µM
> 150 µM
> 300 µM
> 150 µM
4 µM
> 150 µM
2 µM

# batch: return MIC for each of the 4 compounds below
1. c1ccc(CNCCC2CCCC2)cc1
2. CCNS(=O)(=O)Cc1ccccc1CNC(C)CC1CCCCC1 (stereo not drawn)
3. CC1CCCCC1CCN1Cc2ccccc2CC1=O (stereo not drawn)
4. CC1(C)Cc2cccc(CCNCc3ccccc3)c2O1

> 150 µM
7 µM
55 µM
> 150 µM

# batch: return MIC for each of the 3 compounds below
1. c1ccc(CNCCc2ccc3c(c2)COC3)cc1
2. CC(CC1CC=CCC1)NCc1ccccc1 (stereo not drawn)
3. OC[C@@H](Cc1ccccc1)NCc1ccccc1

["> 150 µM", "11 µM", "> 300 µM"]
